experiment: The drug is tested on WLS-310 corresponding to human gut metagenome with ENA study accession number: PRJEB37062 and ENA sample accession number: ERS12561785 for biotransformation under anaerobic condition. The drug concentrations were measured over 9 timepoints collected between 0 and 24 hours of incubation by liquid-chromatography-coupled mass spectrometry (LC–MS); conditions: 2 µM; note: call rule not given here
recordedEndpoint: Bacterial Biotransformation

COc1ccccc1OCCNCC(O)COc1cccc2[nH]c3ccccc3c12 (centres undefined)
Compound metabolized
c1ccc2[nH]c(-c3cscn3)nc2c1
Compound NOT metabolized
COC(=O)C(c1ccccc1)C1CCCCN1 (centres undefined) [METHYLPHENIDATE]
Compound NOT metabolized
CN(CCOc1ccc(CC2SC(=O)NC2=O)cc1)c1ccccn1.O=C(O)/C=C\C(=O)O (centres undefined) [ROSIGLITAZONE MALEATE]
Compound metabolized

Query block: Item under review: CCCC(C)(COC(N)=O)COC(=O)NC(C)C (centres undefined) . Reported Bacterial Biotransformation?
Result block: Compound NOT metabolized

Query block: Look up Bacterial Biotransformation: CC(C)(C)NC[C@H](O)COc1nsnc1N1CCOCC1.O=C(O)/C=C\C(=O)O [TIMOLOL MALEATE]
Result block: Compound NOT metabolized

Query block: Entry under review: CC[C@@]1(O)C(=O)OCc2c1cc1n(c2=O)Cc2cc3c(CN(C)C)c(O)ccc3nc2-1 . Reported Bacterial Biotransformation?
Result block: Compound NOT metabolized

Query block: Dear colleague, I am looking for the recorded Bacterial Biotransformation of the following molecule: COc1ccc(C(CN(C)C)C2(O)CCCCC2)cc1 (centres undefined)
Result block: Compound metabolized

Query block: Would you kindly share the measured Bacterial Biotransformation for COc1ccc(/C=C/C(=O)Nc2ccccc2C(=O)O)cc1OC ?
Result block: Compound metabolized

---

conditions: human gut metagenome, 24 h, 2 µM
recordedEndpoint: Bacterial Biotransformation

Some solved cases for reference:
O=C([O-])C[C@H](O)C[C@H](O)/C=C/c1c(C2CC2)nc2ccccc2c1-c1ccc(F)cc1.O=C([O-])C[C@H](O)C[C@H](O)/C=C/c1c(C2CC2)nc2ccccc2c1-c1ccc(F)cc1.[Ca+2] [PITAVASTATIN CALCIUM]
Compound NOT metabolized
CCN(CC)C(=O)C1(c2ccccc2)CC1CN (stereo not drawn)
Compound NOT metabolized
CCN(CC)CCNC(=O)c1cc(S(C)(=O)=O)ccc1OC [TIAPRIDE]
Compound metabolized
CCS(=O)(=O)CCn1c([N+](=O)[O-])cnc1C [TINIDAZOLE]
Compound metabolized

Query block: Given the compound C#C[C@]1(OC(C)=O)CC[C@H]2[C@@H]3CCC4=C[C@@H](OC(C)=O)CC[C@@H]4[C@H]3CC[C@@]21C [ETHYNODIOL DIACETATE] , what is its reported Bacterial Biotransformation?
Result block: Compound metabolized

Query block: Could you tell me which Bacterial Biotransformation is on file for OCCN(CCO)c1nc(N2CCCCC2)c2nc(N(CCO)CCO)nc(N3CCCCC3)c2n1 [DIPYRIDAMOLE] ?
Result block: Compound metabolized

Query block: What value of Bacterial Biotransformation has been recorded for this entry: COc1ccccc1OCCNCC(O)COc1cccc2[nH]c3ccccc3c12 (stereo not drawn) [CARVEDILOL]
Result block: Compound metabolized

Query block: What does the record list as Bacterial Biotransformation for N[C@@H](Cc1ccc(N(CCCl)CCCl)cc1)C(=O)O ?
Result block: Compound NOT metabolized
